These data points were gathered from ChEMBL document CHEMBL6103538.

experimental-target: Carbonic anhydrase 1 (Homo sapiens, UniProt P00915)
Sequence (P00915 whole entry): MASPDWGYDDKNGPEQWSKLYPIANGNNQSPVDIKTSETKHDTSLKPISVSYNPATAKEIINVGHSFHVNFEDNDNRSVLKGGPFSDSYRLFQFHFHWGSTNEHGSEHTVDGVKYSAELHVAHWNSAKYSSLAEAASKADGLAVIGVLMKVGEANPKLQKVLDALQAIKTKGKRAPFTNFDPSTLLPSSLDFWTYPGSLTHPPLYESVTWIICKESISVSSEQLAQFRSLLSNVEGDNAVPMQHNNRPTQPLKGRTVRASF
measurement-notes: Binding affinity to human CA I assessed as inhibition constant
pKi: −log10 of the molar value.

structure-as-smiles	pKi
CC(=O)c1ccc(N/N=N/c2ccc(S(=O)(=O)NC(=N)N)cc2)cc1	8.19
NS(=O)(=O)c1ccc(C(=O)Nc2ncc(C(=O)NCCN3CCOCC3)s2)cc1	7.34
NS(=O)(=O)c1ccc(C(=O)Nc2nc(C(=O)OCCN3CCOCC3)cs2)cc1	7.30

----------
System: MCF7
measurement-notes: Antiproliferative activity against human MCF7 cells assessed as reduction in cell viability by SRB assay
Type: functional, cell-based
Quick reference for IC50 among some compounds
endpoint-name: IC50

compound	endpoint-name	observed-value
CC(=O)C(C)/C(C)=N/NC(=O)C12CC3CC(CC(C3)C1)C2 (stereo not drawn)	IC50	< 5 µM
Nc1nn(C(=O)C23CC4CC(CC(C4)C2)C3)c(N)c1/N=N/c1ccccc1	IC50	< 5 µM
Cc1ccc(-c2c(/C=N/NC(=O)C34CC5CC(CC(C5)C3)C4)n[nH]c2-c2ccccc2)cc1	IC50	< 5 µM
